# tested_system: UniProt P0DTD1
# measurement_protocol: biochemical
# Type: biochemical
# measurement_setup: SARS-CoV-2 nsp3 macrodomain TR-FRET single point; concentration 99.5 uM; n=2
value_type: perc_inhibition_mean (%)

Cn1cc(NC(=O)c2ccc(NC(=O)Nc3ccccc3)cc2)c(C#N)n1
-0.539
O=C(CCN(Cc1cccc(Cl)c1)C(=O)c1ccc(F)cn1)N1CCNCC1
6.737
CCN(Cc1cccnc1)C(=O)c1ccc(NC(=O)Nc2ccccc2)cc1
-7.091
Cc1c(-c2cnc3nc[nH]c(=O)c3c2)ccc2[nH]ncc12
-4.364
COc1cccc(NC(=O)c2ccc(NC(=O)Nc3ccccc3)cc2)n1
5.367
CCn1cnc(Nc2ncnc3c2ncn3Cc2cc(OC)no2)c1
-12.789
C[C@@H]1CN(C(=O)c2ccc(NC(=O)Nc3ccccc3)cc2)CC(=O)N1
0.29
CO[C@@H]1CCCN(C(=O)c2cnn3ccc(C4CCN(C(=O)c5ccccc5)CC4)cc23)C1
39.842
O=C(NCC1(O)CCOCC1)c1cnn2ccc(C3CCN(C(=O)c4ccccc4)CC3)cc12
-1.103
Cn1nncc1C(=O)N(CCC(=O)N1CCNCC1)Cc1cccc(Cl)c1
-2.15
Cc1cocc1C(=O)N(CCC(=O)N1CCNCC1)Cc1cccc(Cl)c1
0.51
CN1CCC[C@@H]1CNC(=O)c1cnn2ccc(C3CCN(C(=O)c4ccccc4)CC3)cc12
1.495
O=C(CCN(Cc1cccc(Cl)c1)C(=O)c1cnon1)N1CCNCC1
-1.082
O=C(Nc1ccccc1)Nc1ccc(C(=O)NCc2ccnc(F)c2)cc1
4.92
COC(=O)[C@]1(F)CCN(C(=O)c2ccc(NC(=O)Nc3ccccc3)cc2)C1
0.834
C[C@H](NC(=O)c1ccc(NC(=O)Nc2ccccc2)cc1)[C@@H]1CCCO1
-4.858
CC1(C)CN(C(=O)c2ccc(NC(=O)Nc3ccccc3)cc2)C[C@@]1(F)C(=O)O
-5.193
NCC(F)(F)CNC(=O)c1ccc(NC(=O)Nc2ccccc2)cc1
-1.174
CN1CCO[C@H](CNC(=O)c2ccc(NC(=O)Nc3ccccc3)cc2)C1
3.272
C[C@H](NC(=O)c1cnn2ccc(C3CCN(C(=O)c4ccccc4)CC3)cc12)c1cccnc1
-6.209
O=C(c1cn2ncccc2n1)N1CCC(c2ccn3ncc(C(=O)N4CCCCC4)c3c2)CC1
53.75
O=C(NC1CCC(F)(F)CC1)c1ncnc2[nH]ccc12
-5.78
O=C(NCc1c[nH]nn1)c1cnn2ccc(C3CCN(C(=O)c4ccccc4)CC3)cc12
2.165
O=C(Nc1ccccc1)Nc1ccc(C(=O)N2CCc3ccncc32)cc1
0.234
CCc1n[nH]c(NC(=O)c2ccc(NC(=O)Nc3ccccc3)cc2)c1Br
0.467
Cc1cnc(C(=O)N(CCC(=O)N2CCNCC2)Cc2cccc(Cl)c2)nc1
6.47
CN(Cc1cn(C)nn1)C(=O)c1ccc(NC(=O)Nc2ccccc2)cc1
0.566
O=C(Nc1ccccc1)Nc1ccc(C(=O)N2CCOCC23CCC3)cc1
-3.184
N[C@@H]1CCC[C@@H](C(=O)N(CCC(=O)N2CCNCC2)Cc2cccc(Cl)c2)C1
-1.468
O=C(Nc1ccccc1)Nc1ccc(C(=O)N2CCc3nc[nH]c3C2)cc1
-2.379
O=C(c1ncc[nH]1)N1CCC(c2ccn3ncc(C(=O)N4CCCCC4)c3c2)CC1
37.203
Cc1ncc(C(=O)N(CCC(=O)N2CCNCC2)Cc2cccc(Cl)c2)cc1N
1.305
CN(C(=O)c1ccc(NC(=O)Nc2ccccc2)cc1)[C@@H]1CN2CCC1CC2
2.773
CC1(C)CNCCN1C(=O)c1ccc(NC(=O)Nc2ccccc2)cc1
1.393
Nc1c(O)cccc1C(=O)N(CCC(=O)N1CCNCC1)Cc1cccc(Cl)c1
1.457

---

# tested_system: V1a (h) (Homo sapiens, UniProt P37288)
# Construct: purchased Eurofins Cerep (SafetyScreen44), recognised from the panel format
# Sequence (P37288 whole entry): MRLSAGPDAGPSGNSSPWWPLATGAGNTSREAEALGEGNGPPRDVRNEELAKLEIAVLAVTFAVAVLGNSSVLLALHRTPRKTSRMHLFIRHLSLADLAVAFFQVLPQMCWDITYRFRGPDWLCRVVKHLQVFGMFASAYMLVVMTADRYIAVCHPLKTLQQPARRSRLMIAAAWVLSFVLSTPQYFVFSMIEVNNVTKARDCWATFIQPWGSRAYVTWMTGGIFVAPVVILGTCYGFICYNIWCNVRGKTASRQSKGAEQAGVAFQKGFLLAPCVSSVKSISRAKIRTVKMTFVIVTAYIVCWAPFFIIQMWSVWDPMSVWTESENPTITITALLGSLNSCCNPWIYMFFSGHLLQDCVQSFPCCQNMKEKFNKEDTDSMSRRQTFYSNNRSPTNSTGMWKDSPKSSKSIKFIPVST
# measurement_protocol: In vitro CEREP profiling, V1a (h) (agonist radioligand)
# Assay type: binding
# measurement_setup: test compound concentration 10 uM
value_type: perc_inhibition (% inhibition of the binding of a ligand specific for each target) (%)

C[C@H](C(=O)O)[C@@H](NC(=O)c1ncnc2[nH]ccc12)c1ccc(Br)cc1
62
COc1ccc([C@H](Cc2nnn[nH]2)NC(=O)c2ncnc3[nH]ccc23)cc1
5
Cn1ncc(-c2cc3c(N[C@@H](c4ccc5c(n4)OCCO5)C(C)(C)C)ncnc3[nH]2)c1C#N
57

---

# tested_system: SARS-CoV-2 nsp3-mac1 (Severe acute respiratory syndrome coronavirus 2, UniProt P0DTD1)
# measurement_protocol: biochemical
# Assay type: biochemical
# measurement_setup: SARS-CoV-2 nsp3 macrodomain TR-FRET single point, concentration 100.0 uM
value_type: perc_inhibition_mean (%)

CN(Cc1nccn1Cc1ccccc1)c1ncnc2[nH]ccc12 [ASAP-0000250]
-8.82
Cn1cnc2c(Nc3cncc(CN)c3)nc(N)nc21 [ASAP-0000242]
-28.278
CO[C@@H](CNc1ncnc2[nH]ccc12)c1cccc(Cl)c1 [ASAP-0000247]
14.175
Cc1ccc(O)c(CNc2ncnc3[nH]cnc23)n1 [ASAP-0000254]
6.284
C[C@]1(C(=O)O)CCCN1C(=O)c1ncnc2[nH]ccc12 [ASAP-0000244]
5.665

---

# measurement_protocol: Hepatic microsomal stability, MLM
# Type: in vitro ADME
# measurement_setup: In vitro mouse liver microsomal stability
Please respond with criterion met when measured clint is strictly beneath 50 µL/min/mg, and with criterion not met in all other cases.

CC(C)[C@@H](Nc1ncnc2[nH]c(-c3cnn(CC(N)=O)c3)cc12)c1ccc2c(n1)OCCO2 (single isomer, unassigned) [ASAP-0012315]
criterion met
CC(C)[C@H](Nc1ncnc2[nH]c(-c3cnn(C)c3C#N)cc12)c1ccc2c(c1)S(=O)(=O)CCC2 (single isomer, unassigned)
criterion not met
CC(C)[C@@H](Nc1ncnc2[nH]c(-c3cnn(C)c3C#N)cc12)c1ccc2c(n1)NC(=O)CO2 [ASAP-0008644]
criterion not met
CC(C)[C@@H](Nc1ncnc2[nH]c(-c3cncc(S(C)(=O)=O)c3)cc12)c1ccc2c(c1)S(=O)(=O)CCC2
criterion not met
CC(C)(C)[C@H](Nc1ncnc2[nH]c(-c3cnn(CC(N)=O)c3)cc12)c1ccc2c(n1)OCCO2 (single isomer, unassigned) [ASAP-0011159]
criterion met
CCNC(=O)c1cc2c(N[C@H](c3ccc4c(c3)OCCO4)C(C)C)ncnc2[nH]1 [ASAP-0013824]
criterion met

---

# tested_system: SARS-CoV-2 nsp3-mac1 (Severe acute respiratory syndrome coronavirus 2, UniProt P0DTD1)
# measurement_protocol: biochemical
# measurement_setup: HTRF IC50, Figure 4B, bioactive pure enantiomer
pIC50: −log10 of the molar value.
Recorded pIC50 by entry
value_type: pIC50

CCNC(=O)c1cc2c(NC(c3ccc4c(c3)S(=O)(=O)CCC4)C(C)C)ncnc2[nH]1 (centres unmarked)
7.51
Cc1nn(C)cc1-c1cc2c(NC(c3ccc4c(c3)S(=O)(=O)CCC4)C(C)C)ncnc2[nH]1 (centres unmarked)
7.68

---

# tested_system: UniProtKB P0DTD1
# measurement_protocol: biochemical
# measurement_setup: HTRF IC50, Figure 4A, racemic mixture
value_type: log10(IC50) (log10 of the value in µM)

O=C(O)C(Nc1ncnc2[nH]ccc12)c1ccc2c(c1)OCCO2 (stereo not drawn)
0.94
CC(C)(C)C(Nc1ncnc2[nH]ccc12)c1ccc2c(c1)OCCO2 (stereo not drawn)
0.04
CC(C)C(Nc1ncnc2[nH]ccc12)c1ccc2c(c1)NC(=O)CO2 (stereo not drawn)
-0.41
COc1ccc(C(Nc2ncnc3[nH]ccc23)C(C)C)cc1 (stereo not drawn)
0.86
c1nc(NC(c2ccc3c(c2)OCCO3)C2CCC2)c2cc[nH]c2n1 (stereo not drawn)
0.76
CC(C)C(Nc1ncnc2[nH]c(C(=O)NC3CCN(C)C3)cc12)c1ccc2c(c1)OCCO2 (stereo not drawn)
-0.34

---

# tested_system: SARS-CoV-2 nsp3-mac1 (Severe acute respiratory syndrome coronavirus 2, UniProt P0DTD1)
# measurement_protocol: biochemical
# Assay type: biochemical
# measurement_setup: SARS-CoV-2 nsp3 macrodomain TR-FRET single point; concentration 99.5 uM; n=2
value_type: perc_inhibition_mean (%)

O=C(Nc1ccccc1)Nc1ccc(C(=O)N[C@H]2CC[C@H](CO)CC2)cc1 [ASAP-0000296]
-2.577
Cn1c(C(=O)N(CCC(=O)N2CCNCC2)Cc2cccc(Cl)c2)cnc1O [ASAP-0000321]
-2.757
O=C1NC[C@@H](C(=O)N(CCC(=O)N2CCNCC2)Cc2cccc(Cl)c2)O1 [ASAP-0000343]
5.241
CNC[C@@H]1CCCN1C(=O)c1cnn2ccc(C3CCN(C(=O)c4ccccc4)CC3)cc12 [ASAP-0000338]
-2.203

---

# measurement_protocol: Hepatic microsomal stability, MLM
# Assay type: in vitro ADME
# measurement_setup: In vitro mouse liver microsomal stability
Recorded clint by entry
value_type: clint (µL/min/mg)

CC(C)[C@H](Nc1ncnc2[nH]c(-c3cnn(C)c3C#N)cc12)c1ccc2c(c1)OCCO2 [ASAP-0010980]
257.0
CC(C)[C@@H](Nc1ncnc2[nH]c(-c3cnn(CC(N)=O)c3)cc12)c1ccc2c(n1)OCCO2 [ASAP-0008646]
12.0
CC(C)[C@@H](Nc1ncnc2[nH]ccc12)c1ccc2c(c1)S(=O)(=O)CCO2 [ASAP-0012318]
69.0
CC(C)[C@H](Nc1ncnc(N)c1Cl)c1ccc2c(c1)S(=O)(=O)CCC2 (racemic) [ASAP-0010739]
204.0
